# targetDesc: T1, IL-18 receptor (IL-18R) on HEK-Blue IL18R reporter cells (UniProt Q13478 19-541; O95256 20-599, limits assumed)
# T1 sequence (looked up) 1: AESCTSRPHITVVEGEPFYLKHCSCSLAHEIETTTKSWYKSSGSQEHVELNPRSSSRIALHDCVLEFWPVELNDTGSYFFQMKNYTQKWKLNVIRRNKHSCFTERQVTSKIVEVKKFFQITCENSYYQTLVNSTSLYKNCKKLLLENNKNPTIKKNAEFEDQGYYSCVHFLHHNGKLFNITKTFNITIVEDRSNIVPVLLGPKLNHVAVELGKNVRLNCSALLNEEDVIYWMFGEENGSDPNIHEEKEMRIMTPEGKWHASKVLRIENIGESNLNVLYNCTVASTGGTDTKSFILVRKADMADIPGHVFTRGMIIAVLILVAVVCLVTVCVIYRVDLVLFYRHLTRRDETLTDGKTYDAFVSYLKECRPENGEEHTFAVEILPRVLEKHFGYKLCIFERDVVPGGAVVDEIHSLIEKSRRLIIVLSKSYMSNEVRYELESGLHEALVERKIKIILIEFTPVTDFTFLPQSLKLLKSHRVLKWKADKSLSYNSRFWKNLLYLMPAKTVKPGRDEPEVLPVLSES
# T1 sequence (looked up) 2: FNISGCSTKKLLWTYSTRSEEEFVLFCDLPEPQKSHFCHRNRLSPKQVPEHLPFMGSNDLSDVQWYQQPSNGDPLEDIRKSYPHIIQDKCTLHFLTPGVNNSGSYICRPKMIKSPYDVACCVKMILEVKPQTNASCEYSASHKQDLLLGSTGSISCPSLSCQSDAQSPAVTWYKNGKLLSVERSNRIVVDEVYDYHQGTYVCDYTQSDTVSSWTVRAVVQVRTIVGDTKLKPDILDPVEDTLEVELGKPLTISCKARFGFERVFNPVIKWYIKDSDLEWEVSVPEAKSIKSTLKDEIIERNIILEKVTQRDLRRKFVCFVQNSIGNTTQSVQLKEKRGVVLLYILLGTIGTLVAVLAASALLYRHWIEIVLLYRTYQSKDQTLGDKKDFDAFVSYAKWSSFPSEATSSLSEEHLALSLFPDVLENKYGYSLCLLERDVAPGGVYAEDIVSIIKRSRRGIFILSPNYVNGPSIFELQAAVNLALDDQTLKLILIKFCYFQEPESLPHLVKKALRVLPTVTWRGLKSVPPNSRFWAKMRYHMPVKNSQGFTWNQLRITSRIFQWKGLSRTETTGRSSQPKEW
# assayDetails: cell-based or functional assay
measuredProperty: EC50 (read off the curve); SEAP reporter in HEK-Blue IL18R cells (OD 620 nM)

Here are 3 binders together with their reported answers.
>>> datavalue("IL-18 variant SEQ ID NO: 241 (N-terminal 4xG, E6K, V11I, C38A, K53A, T63A, C76A, C127A) (ligand) GGGGYFGKLKSKLSIIRNLNDQVLFIDQGNRPLFEDMTDSDARDNAPRTIFIISMYADSQPRGMAVAISVKCEKISTLSAENKIISFKEMNPPDNIKDTKSDIIFFQRSVPGHDNKMQFESSSYEGYFLAAEKERDLFKLILKKEDELGDRSIMFTVQNED")
"~3 pM"
>>> datavalue("IL-18 variant SEQ ID NO: 207 (V11I, C38A, M51G, K53A, C76A, C127A) (ligand) YFGKLESKLSIIRNLNDQVLFIDQGNRPLFEDMTDSDARDNAPRTIFIISGYADSQPRGMAVTISVKCEKISTLSAENKIISFKEMNPPDNIKDTKSDIIFFQRSVPGHDNKMQFESSSYEGYFLAAEKERDLFKLILKKEDELGDRSIMFTVQNED")
"~4 pM"
>>> datavalue("IL-18 variant SEQ ID NO: 242 (N-terminal G, E6K, V11I, C38A, K53A, T63A, C76A, C127A) (ligand) GYFGKLKSKLSIIRNLNDQVLFIDQGNRPLFEDMTDSDARDNAPRTIFIISMYADSQPRGMAVAISVKCEKISTLSAENKIISFKEMNPPDNIKDTKSDIIFFQRSVPGHDNKMQFESSSYEGYFLAAEKERDLFKLILKKEDELGDRSIMFTVQNED")
"~2 pM"

Query binder follows.
## Input Give the measured EC50 (read off the curve); SEAP reporter in HEK-Blue IL18R cells (OD 620 nM) for IL-18 variant SEQ ID NO: 30 (E6K, V11I, C38A, K53A, T63A, C76A, C127A) (ligand) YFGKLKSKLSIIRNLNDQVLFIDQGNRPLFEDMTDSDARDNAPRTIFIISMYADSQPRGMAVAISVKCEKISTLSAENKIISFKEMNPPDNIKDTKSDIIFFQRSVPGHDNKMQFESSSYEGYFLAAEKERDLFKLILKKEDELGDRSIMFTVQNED
## Output ~0.05 pM
